System: SF-539 CNS
Experiment: NCI-60 one-dose screen, 48 h (100 = growth as untreated, 0 = no growth, -100 = all killed)
Details: 10 µM unless noted
Compounds without any hit were thinned out: in the full panel of roughly 83,000, 20% have a hit.
Overview of recorded growth for various compounds
measurement_label: growth (%)

* Fc1ccc(NC(c2ccc(F)cc2)C2CCN(CCCCc3ccccc3)CC2)cc1 (stereo not drawn) | 40.5
* CCCCCCCCCCCCCCCCCCn1cc(COc2ccc(C=O)cc2)nn1 | 98.5
* Cc1ccc(-c2nc3nc(-c4ccc(Cl)cc4)nc(N4CCCNCC4)c3o2)cc1 | -96.1
* COC(=O)c1nc(-c2ccc(C)cc2)oc1Sc1ccc(C)cc1 | 96.8
* CC[C@]12CN3CCc4c([nH]c5ccccc45)[C@@](C(=O)OC)(c4cc5c(cc4OC)N(C)[C@H]4[C@@](O)(C(=O)OC)[C@H](OC(C)=O)[C@]6(CC)C=CCN7CC[C@]54[C@@H]76)CC(C3)[C@H]1O2 (stereo partly drawn) | 2.86
* O=C(NCc1ccc(Cn2c(=O)sn(-c3ccc(Cl)cc3)c2=O)cc1)OCc1ccc2c(Cl)cc(Cl)c(O)c2n1 | 42.5
* c1ccc(-c2cc(-c3cc(-c4ccccc4)on3)no2)cc1 | 91.3
* CN(Cc1ccccc1)c1nc(Cl)c(C2CC(c3ccc4c(c3)OCO4)=NN2c2cc(Cl)cc(Cl)c2)s1 (stereo not drawn) | 103
